- Assay Target: dipeptidyl-peptidase IV (DPP-IV) (Homo sapiens, UniProt P27487)
- Construct: purchased Creative BioMart (Shirley, NY, USA); host or cells: HEK293 human cells
- Sequence (P27487 whole entry): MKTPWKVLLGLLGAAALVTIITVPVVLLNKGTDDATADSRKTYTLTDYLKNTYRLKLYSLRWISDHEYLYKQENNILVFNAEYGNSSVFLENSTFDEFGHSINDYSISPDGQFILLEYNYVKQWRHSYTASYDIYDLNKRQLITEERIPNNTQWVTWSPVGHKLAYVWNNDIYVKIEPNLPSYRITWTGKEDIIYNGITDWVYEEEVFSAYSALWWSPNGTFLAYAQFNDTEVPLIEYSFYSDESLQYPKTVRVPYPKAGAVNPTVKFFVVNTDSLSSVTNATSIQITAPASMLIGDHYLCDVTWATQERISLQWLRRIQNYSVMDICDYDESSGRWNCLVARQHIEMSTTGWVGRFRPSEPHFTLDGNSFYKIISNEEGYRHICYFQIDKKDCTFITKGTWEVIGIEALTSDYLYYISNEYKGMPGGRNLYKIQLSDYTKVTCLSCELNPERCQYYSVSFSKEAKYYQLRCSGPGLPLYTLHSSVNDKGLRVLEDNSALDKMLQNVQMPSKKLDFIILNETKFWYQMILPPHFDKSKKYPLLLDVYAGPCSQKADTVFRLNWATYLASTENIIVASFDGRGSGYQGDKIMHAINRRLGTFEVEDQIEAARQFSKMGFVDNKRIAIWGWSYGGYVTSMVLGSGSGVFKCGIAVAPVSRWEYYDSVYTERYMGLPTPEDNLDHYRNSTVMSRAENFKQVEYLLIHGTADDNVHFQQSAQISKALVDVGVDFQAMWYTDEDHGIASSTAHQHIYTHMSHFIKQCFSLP
- Experimental Protocol: DPP-IV inhibition assay on SPOT-synthesized peptides (cleaved from cellulose membrane)
- Assay type: biochemical
- Details: peptides cleaved from cellulose membrane, concentration not known (semi-quantitative); averages of four determinations from two experiments
Ends that are not written are not given here.
Experimental Readout: Percent inhibition of DPP-IV activity, SPOT-synthesized deca-peptides (%)

# Substance, Reported Result
measured = [
    ("B8: α-lactalbumin-derived deca-peptide, residues 19–28 (Table S1) (GGVSLPEWVC; UniProt P00711 38-47, looked up, fragment)", 15),
    ("AHKALCSEKL [J7]", 21),
    ("C5: α-lactalbumin-derived deca-peptide, residues 27–36 (Table S1) (ICTMFHTSGY; UniProt P00709 46-55, looked up, fragment)", 16),
    ("D5: α-lactalbumin-derived deca-peptide, residues 38–47 (Table S1) (TQAIVQNNDS; UniProt P00711 57-66, looked up, fragment)", 14),
    ("DDQNPHSSNI [F8]", 15),
    ("HKALCSEKLD [J8]", 20),
    ("H10: α-lactalbumin-derived deca-peptide, residues 87–96 (Table S1) (DDIMCVKKIL; UniProt P00711 106-115, looked up, fragment)", 20),
    ("EKLDQWLCEK [K3]", 24),
    ("H9: α-lactalbumin-derived deca-peptide, residues 86–95 (Table S1) (TDDIMCAKKI; UniProt P00709 105-114, looked up, fragment)", 20),
    ("A7: α-lactalbumin-derived deca-peptide, residues 7–16 (Table S1) (EVFRELKDLK; UniProt P00711 26-35, looked up, fragment)", 18),
    ("VSLPEWVCTT [B10]", 15),
    ("KLDQWLCEKL [K4]", 19),
    ("D1: α-lactalbumin-derived deca-peptide, residues 34–43 (Table S1) (SGYDTQAIVE; UniProt P00709 53-62, looked up, fragment)", 11),
    ("A3: α-lactalbumin-derived deca-peptide, residues 3–12 (Table S1) (FTKCELSQLL; UniProt P00709 22-31, looked up, fragment)", 20),
    ("RELKDLKGYG [A10]", 14),
    ("LPEWVCTTFH [C1, LPEWVCTTFH]", 26),
    ("QINNKIWCKD [E10, QINNKIWCKD]", 6),
]
